The measured values listed here are drawn from patent US6972319B1.

- assay.system: T1, PACAP-R3 (human, UniProt P41587 24-438)
- T1 sequence (looked up): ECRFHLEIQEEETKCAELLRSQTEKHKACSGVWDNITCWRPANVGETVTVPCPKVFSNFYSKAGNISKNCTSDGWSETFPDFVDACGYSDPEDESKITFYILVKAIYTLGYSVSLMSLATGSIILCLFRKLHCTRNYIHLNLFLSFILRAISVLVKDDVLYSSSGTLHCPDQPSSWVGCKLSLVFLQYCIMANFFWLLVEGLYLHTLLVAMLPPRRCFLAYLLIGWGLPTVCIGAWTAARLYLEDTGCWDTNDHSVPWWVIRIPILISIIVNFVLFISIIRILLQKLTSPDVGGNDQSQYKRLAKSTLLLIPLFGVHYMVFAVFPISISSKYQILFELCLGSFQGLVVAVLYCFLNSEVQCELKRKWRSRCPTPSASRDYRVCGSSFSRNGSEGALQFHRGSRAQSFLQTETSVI
- experiment.notes: cell-based or functional assay
reported.metric: R3 EC50 (nM)

INSERT INTO measurements (binder, number) VALUES
  ('HSDAVFTDNYTRLRKQMAAKKYLNSIKNKD [R3P155]', 0.4),
  ('HSDAVFTDNYTRLRKQMAAKKYLNSINNKR [R3P125]', 2),
  ('HSDAVFTDNYTRLRKQVAAKKYLQSILKKRY [R3P83]', 0.08),
  ('HSDAVFTDNYTRLRKQMAAKKYLNSIKNTR [R3P149]', 0.5),
  ('HSDAVFTDNYTRLRKQVAVKKYLQSIKKK [R3P81]', 0.5),
  ('HSDAVFTDNYTRLRKQMAAKKYLNSIMNKR [R3P124]', 0.2),
  ('HSDAVFTDNYTRLRKQMAAKKYLNSIHNKR [R3P122]', 0.2),
  ('HSDAVFTDNYTRLRKQMAAKKYLNSIKNKRY [R3P55]', 0.17),
  ('HSDAVFTDNYTRLRKQMAAHKYLNSIKNKRY [R3P73]', 0.3),
  ('HSDAVFTDNYTRLRKQMAAKKYLNSIKNKF [R3P157]', 0.3),
  ('HSDAVFTDNYTRLRKQMAAKKYLNSIRNKR [R3P128]', 0.3),
  ('HSDAVFTENYTKLRKQLAAKKYLNDLKKGGTSWCEPGWCR [R3P19]', 1.4),
  ('HSDAVFTDNYTRLRKQMAWKKYLNSIKNKR [R3P114]', 2),
  ('HSDAVFTDNYTRLRKQLAAKKYLNDIKKKRY [R3P36]', 0.4);
